- Tested on: ATF4
- EXPERIMENT_NOTES: ATF4 protein level in PC3 cells by western blot, 24 hr
- Format: cell-based
- CONDITION_INFO: Homo sapiens, PC-3, PC3, 24 h, Actin control, read-out: Relative ATF4 protein at 10 μM (fold change, PC3 24 h)
- Protocol: Table 2. Biological data of selected compounds. For IC50 determination. PC3 and PC12 cells were treated with increasing concentrations of the indicated compounds for 72 hrs and cell viability assessed using CellTitreGlo Assay (Promega). For MYC and ATF4 protein level determination. […] Quantification analyses were performed by Biorad ChemiDoc Imager and Bio-Rad Image Lab software.
QUANTITY_KIND: fold induction at 10 µM

Cn1nc(C(F)(F)F)cc1-c1ccc(N(CCCOCCC(=O)NCCCCNC(=O)COc2cccc3c2C(=O)N(C2CCC(=O)NC2=O)C3=O)C(=O)c2ccc(Cl)c(C(F)(F)F)c2)cc1O (stereo not drawn)	1.9
Cn1nc(C(F)(F)F)cc1-c1ccc(Oc2ccc(Cl)cc2)c(-c2ccc(Cl)c(C(F)(F)F)c2)c1O	18.3
Cn1nc(C(F)(F)F)cc1-c1cc(Cl)c(CNc2ccc(Cl)cc2)c(-c2ccc(Cl)c(C(F)(F)F)c2)c1O	15

* * *

# fold induction at 10 µM values compiled below
- Tested on: ATF4
- EXPERIMENT_NOTES: ATF4 protein level in PC3 cells by western blot, 24 hr
- Format: cell-based
- CONDITION_INFO: Homo sapiens, PC-3, PC3, 24 h, Actin control, read-out: Relative ATF4 protein at 10 μM (fold change, PC3 24 h)
QUANTITY_KIND: fold induction at 10 µM

Cn1nc(C(F)(F)F)cc1-c1ccc(OCc2ccc(Cl)cc2)c(-c2ccc(F)c(F)c2)c1O	5.2
Cn1nc(C(F)(F)F)c(Cl)c1-c1cc(Cl)c(Oc2ccc(Cl)cc2)c(-c2ccc(Cl)c(C(F)(F)F)c2)c1O	23.5
Cn1nc(C(F)(F)F)c(Cl)c1-c1ccc(COc2ccc(Cl)cc2)c(-c2ccc(Cl)c(C(F)(F)F)c2)c1O	9.7
Cn1nc(C(F)(F)F)cc1-c1cc(C(F)(F)F)c(COc2ccc(Cl)cc2)c(-c2ccc(Cl)c(C(F)(F)F)c2)c1O	22.8
Cn1cncc1-c1ccc(OCc2ccc(Cl)cc2)c(-c2ccc(Cl)c(C(F)(F)F)c2)c1O	2.5
Cn1nc(C(F)(F)F)cc1-c1ccc(OCc2ccccc2)c(-c2ccc(Cl)c(C(F)(F)F)c2)c1O	4.6
Cn1nc(C(F)(F)F)cc1-c1ccc(OCCCOCCC(=O)NCCOCCOCCNc2cccc3c2C(=O)N(C2CCC(=O)NC2=O)C3=O)c(-c2ccc(Cl)c(C(F)(F)F)c2)c1O (stereo not shown)	4.6

* * *

- Test system: PC12 cells
- EXPERIMENT_NOTES: PC12 cell viability, CellTitreGlo Assay, 72 hrs
- Format: cell-based
- CONDITION_INFO: Rattus norvegicus, PC-12
pIC50: −log10 of the molar value.
Classification field: enter 1.0 for pIC50 values not below 5, 0.0 for values below it.

Cn1nc(C(F)(F)F)c(Cl)c1-c1ccc(COc2ccc(Cl)cc2)c(-c2ccc(Cl)c(C(F)(F)F)c2)c1O [NUCC-0226606]	0.0
Cn1nc(C(F)(F)F)cc1-c1cc(C(F)(F)F)c(COc2ccc(Cl)cc2)c(-c2ccc(Cl)c(C(F)(F)F)c2)c1O [NUCC-0227244]	1.0
Cn1nc(C(F)(F)F)c(Cl)c1-c1cc(Cl)c(Oc2ccc(Cl)cc2)c(-c2ccc(Cl)c(C(F)(F)F)c2)c1O [NUCC-0227246]	1.0

* * *

- TEST_TARGET: MYC (Homo sapiens)
- Construct: endogenous in cells; host or cells: PC3 cells
- Sequence (P01106 whole entry): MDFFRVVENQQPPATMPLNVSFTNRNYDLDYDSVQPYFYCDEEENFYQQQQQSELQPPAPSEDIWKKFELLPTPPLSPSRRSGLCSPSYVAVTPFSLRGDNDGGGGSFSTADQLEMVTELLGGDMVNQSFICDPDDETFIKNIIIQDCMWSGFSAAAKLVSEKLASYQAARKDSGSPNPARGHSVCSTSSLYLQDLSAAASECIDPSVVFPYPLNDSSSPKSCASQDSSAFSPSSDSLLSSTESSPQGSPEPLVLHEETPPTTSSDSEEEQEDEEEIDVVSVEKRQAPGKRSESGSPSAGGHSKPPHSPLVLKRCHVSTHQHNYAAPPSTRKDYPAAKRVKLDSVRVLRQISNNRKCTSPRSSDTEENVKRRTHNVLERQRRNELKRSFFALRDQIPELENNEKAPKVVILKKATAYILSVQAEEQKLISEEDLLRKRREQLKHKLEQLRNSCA
- EXPERIMENT_NOTES: MYC protein level in PC3 cells by western blot, 24 hr
- Assay type: cell-based
- CONDITION_INFO: PC-3, 24 h, PC3, 24 h, Actin control, read-out: Relative MYC protein at 10 μM (%, PC3 24 h)
Just a reminder that ties go to 0.0: only remaining activity at 10 µM strictly below 40% counts as 1.0.

Cn1nc(C(F)(F)F)c(Cl)c1-c1cc(F)c(COc2ccc(Cl)cc2)c(-c2ccc(Cl)c(C(F)(F)F)c2)c1O	1.0
COc1ccc(C2=N[C@@H](c3ccc(Cl)cc3)[C@@H](c3ccc(Cl)cc3)N2C(=O)N2CCN(CCCCCOc3ccc(-c4cc(C(F)(F)F)nn4C)c(O)c3-c3ccc(Cl)c(C(F)(F)F)c3)C(=O)C2)c(OC(C)C)c1	0.0
Cc1ncsc1-c1ccc(CNC(=O)[C@@H]2C[C@@H](O)CN2C(=O)[C@@H](NC(=O)C2(F)CC2)C(C)(C)C)c(OCCOCCOCCCCCOc2ccc(-c3cc(C(F)(F)F)nn3C)c(O)c2-c2ccc(Cl)c(C(F)(F)F)c2)c1	0.0
CC(=O)N[C@@H](C(=O)N1C[C@@H](O)C[C@@H]1C(=O)NCc1ccc(-c2scnc2C)cc1OCCOCCNC(=O)CCOCCCN(C(=O)c1ccc(Cl)c(C(F)(F)F)c1)c1ccc(-c2cc(C(F)(F)F)nn2C)c(O)c1)C(C)(C)C	1.0
Cn1nc(C(F)(F)F)cc1-c1ccc(OCc2ccc(Cl)cc2)c(-c2ccc(Cl)c(Cl)c2)c1O	1.0
CC(C)Cc1ccc([C@@H](C)Oc2ccc(-c3cc(C(F)(F)F)nn3C)c(O)c2-c2ccc(Cl)c(C(F)(F)F)c2)cc1	0.0
Cc1ncsc1-c1ccc(CNC(=O)[C@@H]2C[C@@H](O)CN2C(=O)[C@@H](NCCOCCOc2ccc(COc3ccc(-c4cc(C(F)(F)F)nn4C)c(O)c3-c3ccc(Cl)c(C(F)(F)F)c3)cc2)C(C)(C)C)cc1	0.0
COCCOCCCN(C(=O)c1ccc(C(F)(F)F)c(Cl)c1)c1ccc(-c2cc(C(F)(F)F)nn2C)c(O)c1	0.0
CNc1c(Cl)cc(-c2cc(C(F)(F)F)nn2C)c(O)c1-c1ccc(Cl)c(C(F)(F)F)c1	0.0
CC(=O)Oc1c(-c2cc(C(F)(F)F)nn2C)ccc(OCc2ccccc2)c1-c1ccc(Cl)c(C(F)(F)F)c1	0.0
Cn1nc(C#N)cc1-c1ccc(OCc2ccc(Cl)cc2)c(-c2ccc(Cl)c(C(F)(F)F)c2)c1O	0.0
Cn1nc(C(F)(F)F)cc1-c1ccc(N(CCCOCCC(=O)NCCCCCCOc2cccc3c2C(=O)N(C2CCC(=O)NC2=O)C3=O)C(=O)c2ccc(Cl)c(C(F)(F)F)c2)cc1O (stereo not drawn)	0.0
CNc1ccc(-c2cc(C(F)(F)F)nn2C)c(O)c1-c1ccc(Cl)c(C(F)(F)F)c1	0.0
COc1ccc(-c2c(Cl)c(C(F)(F)F)nn2C)c(O)c1-c1ccc(Cl)c(C(F)(F)F)c1	0.0
Cn1nc(C(F)(F)F)cc1-c1c(F)cc(OCc2ccc(Cl)cc2)c(-c2ccc(Cl)c(C(F)(F)F)c2)c1O	1.0
CN1C(=O)CCC(N2C(=O)c3cccc(NCCOCCOCCNC(=O)CCOCCCN(C(=O)c4ccc(Cl)c(C(F)(F)F)c4)c4ccc(-c5cc(C(F)(F)F)nn5C)c(O)c4)c3C2=O)C1=O (stereo not drawn)	0.0
Cn1nncc1-c1ccc(OCc2ccc(Cl)cc2)c(-c2ccc(Cl)c(C(F)(F)F)c2)c1O	0.0
CC(C)n1nc(C(F)(F)F)cc1-c1ccc(OCc2ccc(Cl)cc2)c(-c2ccc(Cl)c(C(F)(F)F)c2)c1O	0.0
Cn1nc(C(N)=O)cc1-c1cc(Cl)c(COc2ccc(Cl)cc2)c(-c2ccc(Cl)c(C(F)(F)F)c2)c1O	0.0
Cn1nc(C(F)(F)F)cc1-c1ccc(OCc2ccc(Cl)cc2)c(-c2ccc(F)c(F)c2)c1O	1.0
C[C@@H](Oc1ccc(-c2cc(C(F)(F)F)nn2C)c(O)c1-c1ccc(Cl)c(C(F)(F)F)c1)c1ccccc1	1.0
Cn1nc(N)cc1-c1ccc(OCc2ccc(Cl)cc2)c(-c2ccc(Cl)c(C(F)(F)F)c2)c1O	0.0
Cc1ncsc1-c1ccc(CNC(=O)[C@@H]2C[C@@H](O)CN2C(=O)[C@@H](NC(=O)C2(F)CC2)C(C)(C)C)c(OCCOCCOCCOCCOCCCCCOc2ccc(-c3cc(C(F)(F)F)nn3C)c(O)c2-c2ccc(Cl)c(C(F)(F)F)c2)c1	0.0

* * *

- EXPERIMENT_NOTES: Plasma pharmacokinetics after 1 mg/kg PO in female mice
- CONDITION_INFO: mouse
QUANTITY_KIND: Tmax (h)

Cn1nc(C(F)(F)F)cc1-c1cc(Cl)c(COc2ccc(Cl)cc2)c(-c2ccc(Cl)c(C(F)(F)F)c2)c1O [NUCC-0226605]	8
Cn1nc(C(F)(F)F)c(Cl)c1-c1ccc(COc2ccc(Cl)cc2)c(-c2ccc(Cl)c(C(F)(F)F)c2)c1O [NUCC-0226606]	12
Cn1nc(C(F)(F)F)c(Cl)c1-c1cc(Cl)c(COc2ccc(Cl)cc2)c(-c2ccc(Cl)c(C(F)(F)F)c2)c1O [NUCC-0227037]	4
Cn1nc(C(F)(F)F)cc1-c1c(F)cc(OCc2ccc(Cl)cc2)c(-c2ccc(Cl)c(C(F)(F)F)c2)c1O [NUCC-0226545]	4
Cn1nc(C(F)(F)F)cc1-c1ccc(COc2ccc(Cl)cc2)c(-c2ccc(Cl)c(C(F)(F)F)c2)c1O [NUCC-0202416]	8
